# CMV-LACZ in Myoblasts (β-galactosidase activity relative to DMSO) listing for each entry below
Test system: β-galactosidase in CMV-LacZ C2C12 myoblasts
Test: CMV-LacZ secondary screen in C2C12 myoblasts (β-Gal stabilizing assay)
Format: cell-based, mouse
Conditions: 1 uM; CMV-LacZ C2C12 myoblasts
assay-metric: CMV-LACZ in Myoblasts (β-galactosidase activity relative to DMSO)

>>> df
                                   molecule                             tested_system  value_reported
0  CC1Cc2ccccc2N1C(=O)CSc1nnc(N)s1 (stereo not drawn) [MLS001160611-01]  β-galactosidase in CMV-LacZ C2C12 myoblasts          0.8157
1  CC1CC(C)(C)NC(=S)N1CC(=O)N(C)Cc1ccccc1 (stereo not drawn) [MLS000586245-01]  β-galactosidase in CMV-LacZ C2C12 myoblasts          0.8985
2  Cc1ccc(Cn2nnc3c(=O)[nH]c(C4CCCN(C(=O)c5ccco5)C4)nc32)cc1 (stereo not drawn) [MLS001217212-01]  β-galactosidase in CMV-LacZ C2C12 myoblasts          0.9179
3  COc1ccc(C(=O)Nc2ccc(Cl)cn2)cc1Cl [MLS000089748-01]  β-galactosidase in CMV-LacZ C2C12 myoblasts          0.8592
4  O=C(Nc1ccccc1OC(=O)c1ccc(Cl)cc1)c1ccc(Cl)cc1 [MLS000573208-01]  β-galactosidase in CMV-LacZ C2C12 myoblasts          0.9594
5  CCOc1ccc(Br)cc1S(=O)(=O)Nc1ccc(C(=O)Nc2ccccc2OC)cc1 [MLS000418650-01]  β-galactosidase in CMV-LacZ C2C12 myoblasts          0.9533
6  CC(C)(C)Nc1nc(-c2ccc3c(c2)CCN3C(=O)C2CC2)cs1 [MLS001216939-01]  β-galactosidase in CMV-LacZ C2C12 myoblasts          1.1134
7  CCOc1ccccc1NC(=O)COC(=O)CNS(=O)(=O)c1ccc(C)cc1 [MLS000393567-01]  β-galactosidase in CMV-LacZ C2C12 myoblasts          1.1373
8  CCCCNc1nnc(Cc2ccc(Cl)cc2)c(=O)[nH]1 [MLS001215795-01]  β-galactosidase in CMV-LacZ C2C12 myoblasts          1.1375
